test: in vitro; details: human, hela cells, % viability
Each entry below lists one item and its recorded viability at 28.5 h, 10 µM value.

Compound	viability at 28.5 h, 10 µM, %
O=C(C1CCC1)N1CCC(c2nnc(-c3ccsc3)o2)CC1	104
CCOc1cc(OCC)cc(C(=O)N2CCC3(CC2)CC(=O)c2c(OC)cccc2O3)c1	108
CN(C)c1cccc(C(=O)Nc2nc3ccc(S(N)(=O)=O)cc3s2)c1	95.8
Cc1ccc(C(=O)NCCC(=O)Nc2ccccc2C)cc1	103
O=C1NN=C(CSCCO)Oc2ccccc21	88.5
CSc1ccccc1CNC(=O)c1cc(Br)cnc1N(C)S(C)(=O)=O	96.7
Cc1noc(C)c1C(=O)Nc1cnc(-c2ccc(F)cc2)c(-c2ccsc2)n1	97.6
O=C(NCCN1CCCC1=O)Nc1ccccc1	116
OCCOc1ccccc1-c1nnco1	92.6
O=C(Cn1cnc2c(Cl)cc(Cl)cc2c1=O)N1CCCCCC1	92
CC(C)(C)c1cc(C(=O)N/N=C/c2ccc(O)c([N+](=O)[O-])c2)[nH]n1	98.4
Cn1c(CN2CCN(C(=O)Nc3ccccc3)CC2)nc2cc([N+](=O)[O-])ccc21	91.8
O=C1N=C(NC2CCCC2)OC12CCN(Cc1ccccc1)CC2	103
Cc1cc(C)c2c(NCc3ccc(C)o3)n[nH]c2n1	94.9
c1ccc2sc(CCSCCc3nc4ccccc4s3)nc2c1	104
Cn1c(CCC(=O)Nc2ccc3c(c2)CN(Cc2ccccc2)C3)nc2ccccc21	81.2
Cc1ccc(NC(=O)Cn2cnc3c2c(=O)n(C)c(=O)n3C)c(C)c1	90.6
O=C(CN1C(=O)N2CCCN=C2c2ccccc21)N1CCCCC1	85.8
Cc1ccc(C2=NN(C(=N)SC3CC(=O)N(c4ccc(C(=O)O)cc4)C3=O)C(c3ccc(Cl)cc3)C2)cc1 (stereo not shown)	91.5

====

test: in vitro; settings: human, hela cells, % viability

Compound	viability at 28.5 h, 10 µM (%)
CCOC(=O)N1CCN(C(C(=O)O)c2c[nH]c3ccc(C)cc23)CC1 (centres unmarked)	93.1
CCc1nc(CN2CCOC(c3ccc(F)cc3)C2)cs1 (centres unmarked)	89.7
COc1ccc(Cl)cc1NC(=S)NNC(=O)c1cccnc1	92.7
CC(C)c1ccc(NC(=O)CSc2nnc(CN3CCOCC3)n2C)cc1	93.7
CC(C)OC(=O)Cn1c(C2CCNCC2)cc2cccnc21	99.9
O=C1CN=C(N2C(=O)C3C4C=CC(C4)C3C2=O)C(=O)N1 (centres unmarked)	89.7
CC(NC(=O)c1ccc(=O)n(C)n1)c1ccc2c(c1)CCCC2 (centres unmarked)	91.9
CCN(CC)CCN(C(=O)c1cnn(C)c1C)C1CCS(=O)(=O)C1 (centres unmarked)	89.1
COc1ccc([C@@]23CC[C@@H](NC(=O)Nc4cccc(C(F)(F)F)c4F)C[C@@H]2CN(C)C3)cc1OC [CBK063195A]	98.5
COc1nccc(N2CCC3(CCC(=O)N(CCO)C3)CC2)c1C#N	117
OCCN1CSC(=S)N(CCc2ccc(Cl)cc2)C1	122
COc1ncccc1C(=O)N1CCN(CCc2ccccc2)CC1	88.4
CCC(CC(=O)NC1CCCOC1)c1c[nH]c2ccccc12 (centres unmarked)	119
COc1ccc2[nH]cc(CCNC(=O)/C=C/c3ccc(C(C)C)cc3)c2c1	91.7
O=C(O)c1ccc(NS(=O)(=O)c2ccc(Cl)cc2)cc1O	106
CCC1CCCCN1S(=O)(=O)c1ccc(-n2ncc(Cl)c(Cl)c2=O)cc1 (centres unmarked)	13.9
Cc1nnc(CN(C)C2CCN(CCCc3ccccc3)C2)n1C (centres unmarked)	115
Cn1c(=O)n(C)c2cc(S(=O)(=O)ON3C(=O)c4cccc5cc([N+](=O)[O-])cc(c45)C3=O)ccc21	91.6
Cc1cccc(C)c1OCC(=O)Nc1ccc(S(=O)(=O)N2CCOCC2)cc1	94.1
CC1(C)NC(=O)N(CC(O)CN(c2cc(Cl)ccc2Cl)S(=O)(=O)c2ccccc2)C1=O (centres unmarked)	91.4
Nc1nc(N)c(Cc2ccc(Cl)cc2Cl)c(N)n1	94.7
COc1cc(-c2cnc3cccnc3c2N)cc(OC)c1OC	93.1
COc1ccccc1-c1c(O)n[nH]c1C(C)C	111
Nc1ncnc2c1ncn2CCN1CCOCC1	104
CCOC(=O)C1CSCCN1C(=O)c1cnn(-c2ccc(Br)cc2)c1C (centres unmarked)	102
Cc1ccc2[nH]c([C@H]3CCN(C(=O)NC(C)C)C3)nc2c1	90.8
Cc1noc2c1[C@H]1[C@H](O)[C@H](O)C[C@H]1C1(CCC1)N2	111
Cc1ccc(Cl)cc1N(CC(=O)O)S(=O)(=O)c1ccccc1	93
CCS(=O)(=O)c1ccc2oc([C@H]3CCN(S(=O)(=O)c4ccccc4)C3)nc2c1	88.2
CC(=O)Nc1cccc(NC(=S)Nc2ccc(S(N)(=O)=O)cc2)c1	98.4
CCn1c2cc(C)sc2c2cnn(CC(=O)NC(C)C)c(=O)c21	85.8
COc1ccc(-c2cccc(C3CCCN(C(=O)c4ccc(F)cc4)C3)n2)cc1 (centres unmarked)	99.3
CCN(CC(=O)NC(C)C)Cc1nc(-c2cccc(C(F)(F)F)c2)no1	88.6
Nc1cc2ccccc2c(-c2ccsc2)n1	85.3
CCOC(=O)C(C)n1nc(CC)n2c(cc3sc(C)cc32)c1=O (centres unmarked)	86
FC(F)(F)c1ccc(Sc2ccncc2)nc1	108
CC(=O)Nc1cccc(C(=O)N2CCN(Cc3ccc4c(c3)OCO4)CC2)c1	89.2
O=C(CCN1C(=O)c2cccc([N+](=O)[O-])c2C1=O)Nc1ccccc1Cl	91.6
